Reference source: the supplement of paper PMC11061612

Assignment: determine reported Bliss excess for the given compounds.
System: COR-L311 (Small Cell Lung Carcinoma);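 note: after 72 h of two-drug dosing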
Assay: Bliss excess, mean over the matrix (fraction); higher = more synergy
Answers are plain numbers.

CC1(C)CCC(CN2CCN(c3ccc(C(=O)NS(=O)(=O)c4ccc(NCC5CCOCC5)c([N+](=O)[O-])c4)c(Oc4cnc5[nH]ccc5c4)c3)CC2)=C(c2ccc(Cl)cc2)C1 [Venetoclax] + CCN(CCO)CCCOc1ccc2c(Nc3cc(CC(=O)Nc4cccc(F)c4)[nH]n3)ncnc2c1 [AZD2811] (first compound max 1 µM, 7x7, partner max 1 µM) :: 0.0261
CC1(C)CCC(CN2CCN(c3ccc(C(=O)NS(=O)(=O)c4ccc(NCC5CCOCC5)c([N+](=O)[O-])c4)c(Oc4cnc5[nH]ccc5c4)c3)CC2)=C(c2ccc(Cl)cc2)C1 [Venetoclax] + C[C@@H]1COCCN1C2=NC(=NC(=C2)C3(CC3)[S@](=N)(=O)C)C4=C5C=CNC5=NC=C4 [AZD6738] (first compound max 1 µM, 7x7, partner max 10 µM) :: -0.0291
CN(C)CCCOc1ccc(-c2ccc3ncc4c(c3c2)n(C2CCOCC2)c(=O)n4C)cn1 [AZD0156] + C[C@@H]1COCCN1C2=NC(=NC(=C2)C3(CC3)[S@](=N)(=O)C)C4=C5C=CNC5=NC=C4 [AZD6738] (first compound max 1 µM, 7x7, partner max 10 µM) :: 0.0265

// next item, Bliss excess requested
Q: Look up Bliss excess: CN(CCO)CC[C@H](CSc1ccccc1)Nc1ccc(S(=O)(=O)NC(=O)c2ccc(N3CCC([C@@H](O)c4ccccc4-c4ccc(Cl)cc4)CC3)cc2)cc1S(=O)(=O)C(F)(F)F [AZD4320] + CCN(CCO)CCCOc1ccc2c(Nc3cc(CC(=O)Nc4cccc(F)c4)[nH]n3)ncnc2c1 [AZD2811] (first compound max 1 µM, 7x7, partner max 1 µM)
A: 0.0249
